# efficacy annotations
system: HCT116; assay: efficacy (fitted maximal change in viability relative to DMSO control); higher = less cytotoxic (negative = loss of viability); settings: 48 h;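 note: Luminescence-based viability readout, five doses per compound, normalized against on-plate DMSO and empty-well controls, followed by dose-response curve fitting for every drug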

Example results:
| MOLECULE | EXPERIMENTAL_TARGET | efficacy |
| --- | --- | --- |
| Cc1cc(-c2cnn3c(NC[C@H]4C[C@@](C)(O)C4)cc(Oc4cccnc4)nc23)ccc1C(=O)NC1CC1 | HCT116 | -56.6% |
| COc1cc2ncnc(Nc3cccc(Cl)c3F)c2cc1OC(=O)N1CCN(C)C[C@H]1C | HCT116 | -38.2% |
| OC(=O)CNC(=O)\C1=C(/O)C2=CC=CC=C2N(CC3=CC=CC=C3)C1=O | HCT116 | 9.68% |
| C/C=C(/C(=C/C)c1ccc(O)cc1)c1ccc(O)cc1 | HCT116 | -63.7% |

Would you kindly share the measured efficacy for `CC(C)c1cnn2c(NCc3ccccc3)cc(NCCCCCCN)nc12` ?
-106%

Okay, and `O=C([O-])C[C@H](O)C[C@H](O)/C=C/c1c(C2CC2)nc2ccccc2c1-c1ccc(F)cc1` ?
-103%

Okay, and COc1cc(N2CCN(C)CC2)ccc1Nc1ncc2c(n1)N(C)c1ccccc1C(=O)N2C [XMD17-109 (ERK5-IN-1)] ?
-89.1%
